Origin of measurements: the RNAGym collection of RNA variant scans (doi:10.1101/gad.245936.114)

B1: tRNA (parent)
chain: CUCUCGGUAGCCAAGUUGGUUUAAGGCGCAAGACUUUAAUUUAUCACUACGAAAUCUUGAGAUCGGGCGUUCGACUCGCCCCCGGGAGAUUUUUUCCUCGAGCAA

- Variants of: B1
- test summary: nonsense suppression (GFP-seq) (ratio to wild type); higher = more function; SUP4oc tRNA, yeast GFP reporter sort-seq
Variants at the floor of the assay were thinned out.
assay readout: nonsense suppression

>  <variant description>
G67C C83A

>  <assay readout>
nonsense suppression

>  <reported>
≤ 0.026

$$$$
>  <variant description>
C34U A74C C79A

>  <assay readout>
nonsense suppression

>  <reported>
≤ 0.026

$$$$
>  <variant description>
A33C U55C C64G U76C

>  <assay readout>
nonsense suppression

>  <reported>
≤ 0.026

$$$$
>  <variant description>
A74G G84C

>  <assay readout>
nonsense suppression

>  <reported>
≤ 0.026

$$$$
>  <variant description>
U16A U17G

>  <assay readout>
nonsense suppression

>  <reported>
1.16

$$$$
>  <variant description>
G7A G25U

>  <assay readout>
nonsense suppression

>  <reported>
≤ 0.026

$$$$
>  <variant description>
C83U

>  <assay readout>
nonsense suppression

>  <reported>
0.535

$$$$
>  <variant description>
A62U G67U G69U

>  <assay readout>
nonsense suppression

>  <reported>
≤ 0.026

$$$$
>  <variant description>
U22C C34G G88A

>  <assay readout>
nonsense suppression

>  <reported>
≤ 0.026

$$$$
>  <variant description>
U63G C82U

>  <assay readout>
nonsense suppression

>  <reported>
0.0882

$$$$
>  <variant description>
U21C A30G A31G U63C

>  <assay readout>
nonsense suppression

>  <reported>
≤ 0.026

$$$$
>  <variant description>
G15A A24G C29G A60C

>  <assay readout>
nonsense suppression

>  <reported>
≤ 0.026

$$$$
>  <variant description>
A30G C72G

>  <assay readout>
nonsense suppression

>  <reported>
0.0409

$$$$
>  <variant description>
C27G U58A U63A

>  <assay readout>
nonsense suppression

>  <reported>
≤ 0.026

$$$$
>  <variant description>
U20G U71G

>  <assay readout>
nonsense suppression

>  <reported>
≤ 0.026

$$$$
>  <variant description>
C29U C64U

>  <assay readout>
nonsense suppression

>  <reported>
0.035

$$$$
>  <variant description>
U16G U17A

>  <assay readout>
nonsense suppression

>  <reported>
1.05

$$$$
>  <variant description>
U2C U4G

>  <assay readout>
nonsense suppression

>  <reported>
0.0326

$$$$
>  <variant description>
G32A U70A C72A

>  <assay readout>
nonsense suppression

>  <reported>
≤ 0.026

$$$$
>  <variant description>
C29G G59A C80G

>  <assay readout>
nonsense suppression

>  <reported>
≤ 0.026

$$$$
>  <variant description>
G28A G66C A87U

>  <assay readout>
nonsense suppression

>  <reported>
≤ 0.026

$$$$
>  <variant description>
U21G G61C

>  <assay readout>
nonsense suppression

>  <reported>
0.105

$$$$
>  <variant description>
C12U U76G

>  <assay readout>
nonsense suppression

>  <reported>
0.0906

$$$$
>  <variant description>
A13G A54C G69U G86U

>  <assay readout>
nonsense suppression

>  <reported>
≤ 0.026

$$$$
